target: Recombinant human ULK1 (1-649) (Homo sapiens (Human), UniProt O75385); assay: ULK1 ADP Glo kinase activity assay, new method (ULKtide peptide substrate); conditions: 25° C., 40 minutes, read-out: ULK1 biochemical IC50
Sequence (O75385 1-649): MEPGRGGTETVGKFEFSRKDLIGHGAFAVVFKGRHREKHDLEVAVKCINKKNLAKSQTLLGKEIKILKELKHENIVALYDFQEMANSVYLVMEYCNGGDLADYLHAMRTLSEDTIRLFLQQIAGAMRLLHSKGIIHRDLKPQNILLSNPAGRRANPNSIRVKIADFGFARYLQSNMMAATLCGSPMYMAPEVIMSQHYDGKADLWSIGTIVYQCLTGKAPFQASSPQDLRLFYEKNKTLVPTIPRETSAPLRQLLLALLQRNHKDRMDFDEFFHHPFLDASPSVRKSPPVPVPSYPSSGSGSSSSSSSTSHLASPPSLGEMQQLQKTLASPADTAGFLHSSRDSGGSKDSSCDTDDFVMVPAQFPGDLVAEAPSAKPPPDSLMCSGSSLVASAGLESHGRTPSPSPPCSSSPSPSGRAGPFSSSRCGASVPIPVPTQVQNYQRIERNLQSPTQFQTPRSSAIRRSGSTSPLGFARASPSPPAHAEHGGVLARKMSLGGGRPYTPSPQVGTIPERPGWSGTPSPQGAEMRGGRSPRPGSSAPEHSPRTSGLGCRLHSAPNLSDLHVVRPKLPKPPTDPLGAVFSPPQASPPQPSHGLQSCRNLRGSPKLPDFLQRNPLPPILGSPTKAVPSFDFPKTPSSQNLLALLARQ
pIC50: −log10 of the molar value.
Assign pIC50 to each entry below.

Enquiry: Data request, read-out pIC50, for CCc1cc2c(cc1Nc1ncc(C(F)(F)F)c(-c3cc4c(s3)C(=O)N(CC(F)(F)F)CCS4(=O)=O)n1)CCNC2
Return: ≥ 8.30

Enquiry: Data request, read-out pIC50, for O=C1c2sc(-c3nc(Nc4ccc(N5C[C@@H]6C[C@H]5CN6)cc4C4CC4)ncc3C(F)(F)F)cc2S(=O)(=O)CCN1C1CC1
Return: ≥ 8.30

Enquiry: Data request, read-out pIC50, for CCN1CCc2cc(Nc3ncc(C(F)(F)F)c(-c4cc5c(s4)C(=O)N(C)CCS5(=O)=O)n3)c(Cl)cc2C1
Return: ≥ 8.30

Enquiry: Data request, read-out pIC50, for Cc1cc2c(cc1Nc1ncc(C(F)(F)F)c(-c3cc4c(s3)C(=O)N(C)CCS4(=O)=O)n1)CCN(CC1CC1)C2
Return: ≥ 8.30

Enquiry: Data request, read-out pIC50, for O=C1c2sc(-c3nc(Nc4cc5c(cc4Cl)CNCC5)ncc3C(F)(F)F)cc2S(=O)(=O)CCN1CC(F)(F)F
Return: ≥ 8.30

Enquiry: Data request, read-out pIC50, for C[C@H]1CN(c2ccc(Nc3ncc(C(F)(F)F)c(-c4cc5c(s4)C(=O)N(C4COC4)CCS5(=O)=O)n3)c(C3CC3)c2)CCN1
Return: ≥ 8.30

###

Assign pIC50 to each entry below.
biological target: Recombinant human ULK1 (1-649) (Homo sapiens (Human), UniProt O75385); test: ULK1 ADP Glo kinase activity assay, new method (ULKtide peptide substrate); conditions: 25° C., 40 minutes, read-out: ULK1 biochemical IC50
pIC50: −log10 of the molar value.

Enquiry: Data request, read-out pIC50, for CN1CCC(c2ccc(Nc3ncc(C(F)(F)F)c(-c4cc5c(s4)C(=O)N(C4CC4)CCS5(=O)=O)n3)c(C3CC3)c2)CC1 [Example 252]
Return: ≥ 8.30

Enquiry: Data request, read-out pIC50, for C[C@H]1CN(c2ccc(Nc3ncc(C(F)(F)F)c(-c4cc5c(s4)C(=O)N(C4COC4)CCS5(=O)=O)n3)c(C3CC3)c2)C[C@H](C)N1C [Example 351]
Return: 8.00 to 8.30

Enquiry: Data request, read-out pIC50, for CCc1cc2c(cc1Nc1ncc(C(F)(F)F)c(-c3cc4c(s3)C(=O)N(C)CCS4(=O)=O)n1)CCN(CC1CC1)C2 [Example 223]
Return: ≥ 8.30

Enquiry: Data request, read-out pIC50, for CC1(CN2CCc3cc(Nc4ncc(C(F)(F)F)c(-c5cc6c(s5)C(=O)N(C5CC5)CCS6(=O)=O)n4)c(C4CC4)cc3C2)COC1 [Example 279]
Return: ≥ 8.30

Enquiry: Data request, read-out pIC50, for Cc1nn(C2CCN(C)CC2)cc1Nc1ncc(C(F)(F)F)c(-c2cc3c(s2)C(=O)N(C)CCS3(=O)=O)n1 [Example 183]
Return: < 7.00

Enquiry: Data request, read-out pIC50, for O=C1c2sc(-c3nc(Nc4cc5c(cc4Cl)CNCC5)ncc3C(F)(F)F)cc2S(=O)(=O)CCN1C1CCC1 [Example 158]
Return: ≥ 8.30

Enquiry: Data request, read-out pIC50, for CN1CCS(=O)(=O)c2cc(-c3nc(Nc4cn(C5CCNCC5)nc4C4CC4)ncc3C(F)(F)F)sc2C1=O [Example 141]
Return: ≥ 8.30

Enquiry: Data request, read-out pIC50, for Cc1cnc(Nc2cc3c(cc2Cl)CNCC3)nc1-c1cc2c(s1)C(=O)N(C)CCS2(=O)=O [Example 259]
Return: ≥ 8.30

Enquiry: Data request, read-out pIC50, for CN1C[C@H]2C[C@@H]1CN2c1ccc(Nc2ncc(C(F)(F)F)c(-c3cc4c(s3)C(=O)N(C3COC3)CCS4(=O)=O)n2)c(C2CC2)c1 [Example 334]
Return: ≥ 8.30

Enquiry: Data request, read-out pIC50, for C[C@H]1CN(c2ccc(Nc3ncc(C(F)(F)F)c(-c4cc5c(s4)C(=O)N(C4CC4)CCS5(=O)=O)n3)c(C3CC3)c2)CCN1C [Example 332]
Return: ≥ 8.30

Enquiry: Data request, read-out pIC50, for CN1CC(n2cc(Nc3ncc(C(F)(F)F)c(-c4cc(S(C)(=O)=O)cs4)n3)c(C3CC3)n2)C1 [Example 145]
Return: 8.00 to 8.30

Enquiry: Data request, read-out pIC50, for CC(C)c1cc2c(cc1Nc1ncc(C(F)(F)F)c(-c3cc4c(s3)C(=O)N(C3CC3)CCS4(=O)=O)n1)CCN(CC1CC1)C2 [Example 268]
Return: ≥ 8.30

Enquiry: Data request, read-out pIC50, for O=C1c2sc(-c3nc(Nc4cc5c(cc4Cl)CCNC5)ncc3C(F)(F)F)cc2S(=O)(=O)CCN1CC(F)(F)F [Example 214]
Return: ≥ 8.30
